Assignment: determine reported melting point for the given compounds.

Requested read-out: melting point. Entry: COc1cccc(-c2nnc(NC(=O)COc3c(-c4ccc(OC)c(OC)c4)oc4cc(OC)cc(OC)c4c3=O)o2)c1 [B23]
205 to 207 °C

Requested read-out: melting point. Entry: COc1cc(OC)c2c(=O)c(OCC(=O)Nc3nnc(-c4ccc(Cl)cc4)o3)c(-c3ccc(OC)c(OC)c3)oc2c1 [B5]
213 to 215 °C

Requested read-out: melting point. Entry: COc1cc(OC)c2c(=O)c(OCC(=O)Nc3nnc(-c4ccc(C(F)(F)F)cc4)o3)c(-c3ccc(OC)c(OC)c3)oc2c1 [B16]
210 to 212 °C

Requested read-out: melting point. Entry: COc1cc(OC)c2c(=O)c(OCC(=O)Nc3nnc(-c4cccc([N+](=O)[O-])c4)o3)c(-c3cc(OC)c(OC)c(OC)c3)oc2c1 [A14]
233 to 235 °C
